- subject_of_test: human recombinant serotonin (5-Hydroxytryptamine) 5-HT2C receptor (Homo sapiens)
- Construct: expressed in transfected cells; host or cells: Chinese hamster ovary (CHO-K1) cells
- Sequence (P28335 33-458): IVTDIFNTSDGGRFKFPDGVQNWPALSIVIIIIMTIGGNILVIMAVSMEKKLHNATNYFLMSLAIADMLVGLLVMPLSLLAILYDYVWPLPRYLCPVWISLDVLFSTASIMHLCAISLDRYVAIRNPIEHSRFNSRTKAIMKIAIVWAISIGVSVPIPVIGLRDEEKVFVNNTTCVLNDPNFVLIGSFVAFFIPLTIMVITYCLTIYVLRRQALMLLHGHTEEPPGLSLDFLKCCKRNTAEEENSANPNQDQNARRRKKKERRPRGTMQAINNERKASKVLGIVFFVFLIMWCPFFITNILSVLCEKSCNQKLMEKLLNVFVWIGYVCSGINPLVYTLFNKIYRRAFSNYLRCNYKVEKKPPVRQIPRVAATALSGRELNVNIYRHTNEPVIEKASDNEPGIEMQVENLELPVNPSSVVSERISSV
- test: Serotonin 5-HT2C radioligand binding assay ([3H]Mesulergine)
- cond: 1 nM [3H]Mesulergine, read-out: Percent Inhibition of ligand binding, Serotonin (1 μM) 5-HT2C
measured_endpoint: inhibition at 1 µM (%)
# unit: % | format: bare number

Field: example entries. Status: answers known.
compound: Cc1ccc2c(c1)c1c(n2CC2(c3ccccc3)OCCO2)CCN(C)C1
measured_endpoint: inhibition at 1 µM
unit_spec: %
test_result: 96

compound: CCOC(=O)CC(Cn1c2c(c3cc(C)ccc31)CN(C)CC2)c1ccc(F)cc1 (stereo not shown)
measured_endpoint: inhibition at 1 µM
unit_spec: %
test_result: 93

compound: Cc1ccc2c(c1)c1c(n2CC(CC(=O)O)c2ccc(F)cc2)CCN(C)C1 (stereo not shown)
measured_endpoint: inhibition at 1 µM
unit_spec: %
test_result: 14

Lab note: next compound to report on.
**Query** Bench note: what inhibition at 1 µM did CN1CCc2c(c3cc(Cl)ccc3n2CC2(c3ccc(Cl)cc3)OCCO2)C1 show?
**Result** 100
